Target: Human ALDH3A1 (Homo sapiens)
Sequence (P30838 whole entry): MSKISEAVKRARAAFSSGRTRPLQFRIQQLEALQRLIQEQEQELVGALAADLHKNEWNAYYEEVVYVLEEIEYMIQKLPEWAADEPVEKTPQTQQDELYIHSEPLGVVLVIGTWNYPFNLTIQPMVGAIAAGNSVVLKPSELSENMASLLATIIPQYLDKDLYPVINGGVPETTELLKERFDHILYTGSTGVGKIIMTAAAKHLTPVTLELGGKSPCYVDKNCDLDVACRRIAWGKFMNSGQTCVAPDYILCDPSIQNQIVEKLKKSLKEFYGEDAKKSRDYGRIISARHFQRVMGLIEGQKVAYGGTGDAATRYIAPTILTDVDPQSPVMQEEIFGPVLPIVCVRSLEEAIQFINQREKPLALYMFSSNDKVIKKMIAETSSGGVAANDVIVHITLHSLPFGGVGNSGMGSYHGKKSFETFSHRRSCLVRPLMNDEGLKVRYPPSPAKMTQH
Test Name: ALDH3A1 biochemical assay (benzaldehyde/NADP+, diaphorase-resazurin readout, 1,536-well)
Condition Details: Table S1, primary screen
Parameter: Efficacy
A bare number is all that is needed in reply.

Worked cases, answers included:
>>> print(df.to_string())
                                   compound  observed_result
0  O=C(NCc1nc(-c2ccccc2)no1)C1CCN(c2cc(-n3cncn3)ncn2)CC1 [NCGC00526793-01]           -44.11
1  O=C(Nc1ccc2c(c1)OCCO2)N1CCC(Cc2nnc(-c3ccncc3)[nH]2)C1 (centres unmarked) [NCGC00438506-01]           -41.70
2  O=C(NCc1ccc(Cl)cc1)c1cc2n(n1)CC(c1ccc3c(c1)OCO3)OC2 (centres unmarked) [NCGC00450299-01]           -21.09
3  COCc1nc(N2CCC(Cn3cccn3)CC2)cc([C@H]2C[C@H](N)C2)n1 [NCGC00422389-01]           -81.78
4  CNC(=O)c1cccc(-c2cnc(Nc3cncnc3)c3c2CCO3)c1 [NCGC00412778-01]           -38.45
5  CN(C)CC1(O)CCN(C(=O)Cn2cc(C(=O)C3CC3)c3ccccc32)C1 (centres unmarked) [NCGC00438461-01]           -41.61
6  COc1cccc(CNC(=O)CCNc2cnc3cnccn23)c1 [NCGC00433986-01]           -81.82

Prompt line: Give the measured Efficacy for O=C(CCc1cc2n(n1)CCCNC2)Nc1ccc2c(c1)OCCO2 [NCGC00441819-01]
Response line: -25.02

Reference source for all entries: paper PMC13266984
